Cited source: ChEMBL document CHEMBL1201862

Tested on: SF-539
experiment.notes: NCI tumour cell line growth inhibition, 48 h
Active and inactive are the calls of the source. Cut-off read from the data, not from the text of the source: active = GI50 up to about 1.1 µM and inactive = higher.
// allowed return values: 1 = active, -1 = inactive

Example cases with answers are listed next.
1. C=C1C(=O)C23CC1C[C@H](OC(C)=O)C2C1(C)C(OC(C)=O)C[C@H](O)C(C)(C)[C@H]1C(O)[C@@H]3OC(C)=O (stereo not given in full) ... -1
2. N#CC12Cc3ccc4c(c3-c3cccc(c31)CCN2C(=O)c1ccccc1)OCO4 (stereo not given) ... -1
3. CCOC(=O)CC[C@@H](NC(=O)c1ccc(NCc2ccc3nc(OC)c(OC)nc3c2)cc1)C(=O)OCC ... -1
4. CC1(C)[C@@H]2C[C@H]1c1cnc(-c3ccccn3)cc1C2CCCCC[C@@H]1c2cc(-c3ccccn3)ncc2[C@@H]2C[C@H]1C2(C)C (stereo not given in full) ... 1
5. COC(=O)C(=O)C(C(=O)Nc1cccc(C)c1C)C1Sc2ccccc2NC1=O (stereo not given) ... -1
6. CC(=O)N(C(=O)CC(=O)N1N=C(C)C(/N=N/c2cccc([N+](=O)[O-])c2)C1=O)c1ccc(Cl)cc1 (stereo not given) ... -1
7. CC1(C)C=[N+]([O-])C(C)(C)N1 ... -1
8. CN(C)/C=N/c1ccc2[nH]c3ccccc3c2c1 ... -1

Lab note: next molecule to report on.
Per the records of this test, what outcome belongs to `O=C1O[C@]2(c3ccccc3)C(c3ccccc3)=C[C@]2(C(=O)c2ccccc2)C1=O` ? -1
